Target under test: HLA-A*24 (human)
Test protocol: UV-exchange ELISA, exchange yield grade
Measurement label: peptide exchange yield

Provide one value: measured peptide exchange yield of VYSSQFETI [… (SEQ ID NO: 262)] > 75%

Provide one value: measured peptide exchange yield of SYLNHLNNL [… (SEQ ID NO: 199)] 50 to 75%

Provide one value: measured peptide exchange yield of LYTETRLQF [… (SEQ ID NO: 264)] > 75%

Provide one value: measured peptide exchange yield of QYPFHVPLL [… (SEQ ID NO: 170)] > 75%

The reported numbers originate from patent US20220249633A1.
